- System: MS2 coat protein
- ASSAY TEXT: apparent KD of MS2 coat protein; designed switch direction (-1 OFF switch, 1 ON switch): -1; higher = weaker reporter binding
- STATED CONDITIONS: input ligand: FMN 200 uM
RECORDED METRIC: apparent KD of MS2 coat protein (nM)
# output: bare number, implied unit nM

{"columns": ["SEQUENCE DATA", "apparent KD of MS2 coat protein, nM"],
 "data": [
  ["UGCGGGCUUUUGAGACCUCACAUGAGGAUCACCCAUGUGCUUGUCUUGUGAGUGGGUAGGUCGUUGGCUGACUCACG [Sensor-V1 #99] (Eterna round: R97, puzzle: Sensor, turn-off variant 1)", 23.4],
  ["GCCGUAAAUGUGAGGAUAUACCUAUGGAUACAUAGGUAGAAGGCACAUGAGGAUCACCCAUGUUCCAAAUCGGC [Eli bmx4 4.07] (Eterna round: R97, puzzle: Brourd's mod of Exclusion 4)", 47.9],
  ["AGUUGGCGAGGAUAUACAUGAGGAUCACCCAUGUGAGAGAUACUAGUGAGGUCGGUUAGUAGAAGGCGCUGACA [Mat X3R4 m16] (Eterna round: R97, puzzle: Exclusion 3)", 344],
  ["CUGAACCCGGUAGGAUAUAUUGUGGGCAAACAUGGAACAACAUGAGGAUCACCCAUGUAAUUUAGGUAGAAGGGCCAAAAGAUU [Excl-NG2-LRO07] (Eterna round: R96, puzzle: Exclusion NG 2)", 77.9]
]}

Query sequence follows.
apparent KD of MS2 coat protein in this record for UUUUACUUAGGAUAUACAUUUUUUUAUUUAUUUAUAAUAUUACAUGAGGAUCACCCAUGUAGAAGGGAGAUUUU [My Design] (Eterna round: R96, puzzle: Exclusion 2) : 76.9

###

- Tested on: MS2 coat protein
- ASSAY TEXT: apparent KD of MS2 coat protein; designed switch direction (-1 OFF switch, 1 ON switch): -1; higher = weaker reporter binding
- STATED CONDITIONS: Eterna round: R98; input ligand: none
Recorded apparent KD of MS2 coat protein for the following sequences
Write the numeric value and append its unit.

Before answering, review these 2 worked examples.
{"columns": ["SEQUENCE DATA", "apparent KD of MS2 coat protein"],
 "data": [
  ["AGGACAGGCAGAGCGCAACGGCGUACAUGAGGAUCACCCAUGUAGGAUAUACUACACAAAGUGUAGUAGAAGGACAUGCGACGC [Ex NG2 #88]", "16.1 nM"],
  ["UAUAUAUAGGCAGGAUAUACAUGAAUAUAUAAUAUAAUAUAUAAUAUAACAUGAGGAUCACCCAUGUAGAAGGGCCAUAAUAUA [LRO031_Exclusion NG 2]", "48.6 nM"]
]}

apparent KD of MS2 coat protein in this record for AUGACAGGCAGAGCGCAACGGCGUACAUGAGGAUCACCCAUGUAGGAUAUACUACACAAAGUGUAGUAGAAGGACAUGCGACGG [Ex NG2 #89] : 35.8 nM

apparent KD of MS2 coat protein in this record for CCAUAAAAGAUCCAUUUUUACAACAUGAGGAUCACCCAUGUGCAGGAUAUCGUGAAAGUUAAAUACGAGAAGGGCAAGAACUGC [JR_ExcNG3_Sub050] : 105 nM

apparent KD of MS2 coat protein in this record for UAUAUAUAGGCAGGAUAUACAUGUAUAUAUAAUUUUUUAUAUAUUAUUACAUGAGGAUCACCCAUGUAGAAGGGCCUUAUUAUA [LRO039_Exclusion NG 2] : 46.9 nM

###

- Tested on: MS2 coat protein
- ASSAY TEXT: apparent KD of MS2 coat protein; designed switch direction (-1 OFF switch, 1 ON switch): -1; higher = weaker reporter binding
- STATED CONDITIONS: input ligand: microRNA oligo, concentration not stated
Think of 20 nM as a floor: if apparent KD of MS2 coat protein stands on it or above, it is 1.0; beneath it, 0.0.

Please review the following examples before continuing.
{"columns": ["SEQUENCE DATA", "LABEL CLASS"],
 "data": [
  ["AGCUGUGGCCGAGGAUAUCACAUGAGGAUCACCCAUGUACAUGAUUAGGCCUGGUAACAGGCUCAUGAGAAGGCGGUCUCAGCA [Eli eng2 - 013] (Eterna round: R96, puzzle: Exclusion NG 2)", 0.0],
  ["AGCUGUGGCCGAGGAUAUCACGAACCAUGGAAAACCAUGGAACUCAUACAUGAGGAUCACCCAUGUGAGAAGGCGGUCUCAGCA [Eli eng2 - 019] (Eterna round: R96, puzzle: Exclusion NG 2)", 1.0],
  ["CUCCGGCCUGUAGGAUAUGGAUCCGAUUAGGAUCCAGAAGGACAUGAGGAUCACCCAUGUACAUGUAAACAGUCAUCACCGGAC [salish99_ExNG1_r04_203] (Eterna round: R96, puzzle: Exclusion NG 1)", 0.0],
  ["UACCUGAGGCAAAGCUUUAGGCUUACAUGAGGAUCACCCAUGUAGGAUAUGGUAGGCAAAGCUUACCAGAAGGACAUGGAAAUU [Mat - Exclusion NG 3 - Mod of JL - D23] (Eterna round: R96, puzzle: Exclusion NG 3)", 1.0]
]}

Has UUAUUAUAUGUAGGAUAUGCAUAUUGUUGUUAUGCAGAAGGACAUGAGGAUCACCCAUGUAUAUUAUUGUUAUAUAUUGUAUAU [Title] (Eterna round: R96, puzzle: Exclusion NG 1) a recorded apparent KD of MS2 coat protein greater than or equal to 20 nM? 0.0

Has GGUACUCAAAGAGUACCAAUACGAACAUGAGGAUCACCCAUGUAGGAUAUGCUACUCAAAGAGUAGCAGAAGGAUAUGAGCCUC [Far Half Aptamer v11] (Eterna round: R96, puzzle: Exclusion NG 3) a recorded apparent KD of MS2 coat protein greater than or equal to 20 nM? 1.0

Has UUGUUAUAUGUAGGAUAUGCGUAUUAUUAUUAUGCAGAAGGACAUGAGGAUCACCCAUGUGUAUUAUUAUUAUAUAUUAUAUAU [Title] (Eterna round: R96, puzzle: Exclusion NG 1) a recorded apparent KD of MS2 coat protein greater than or equal to 20 nM? 0.0

Has UGAGUGCUGCGAGGAUAUACAUGAGGAUCACCCAUGUUAUCGUGUGAGGCUUUGCCUCACACGAAGUAGAAGGCGCAGUACUCU [JL ENG2 1.11] (Eterna round: R96, puzzle: Exclusion NG 2) a recorded apparent KD of MS2 coat protein greater than or equal to 20 nM? 0.0

Has GGAGGACGAGCAGGAUAUUUUUACAUGAGGAUCACCCAUGUGUAAUCAGGGUAAUCCUCCGCCGAAAAGAAGGGUUCGGAAGAA [Mat - Exclusion NG 2 - Mod of JL - D83] (Eterna round: R96, puzzle: Exclusion NG 2) a recorded apparent KD of MS2 coat protein greater than or equal to 20 nM? 0.0

###

Recorded apparent KD of MS2 coat protein for the following sequences
- Test system: MS2 coat protein
- ASSAY TEXT: apparent KD of MS2 coat protein; designed switch direction (-1 OFF switch, 1 ON switch): -1; higher = weaker reporter binding
- STATED CONDITIONS: Eterna round: R95; input ligand: microRNA oligo, concentration not stated
# output: bare number, implied unit nM

{"columns": ["SEQUENCE DATA", "apparent KD of MS2 coat protein (nM)"],
 "data": [
  ["CUGAGCAGACGGAGAUCCAACAUGAGGAUCACCCAUGUCUCAUAAGCUUUUUGCUCAUCUUAUUGUACCUUGGUGCU [JL ViennaUCT Edcesobi mod 3] (puzzle: Sensor v3, turn-off variant 1)", 14.4],
  ["GACCAACGGGUUUACCUUUACAUGAGGAUCACCCAUGUCGCAAGCUUUUUCUCGGGUCCAAUCUUAUAAAUAUUAAU [Legedi] (puzzle: Sensor v3, turn-off variant 1)", 314]
]}

Query sequence follows.
Lab note: sequence GAAAAGCUAGGAUAUACGAAAAAAAAGGGUAGAAAAAAAACACAUGAGGAUCACCCAUGUAGAAGGAGCAAAAG [salish99_ex2_r3_093] (puzzle: Exclusion 2) tested on MS2 coat protein; recorded apparent KD of MS2 coat protein was 51

###

- Tested on: K4 kissing-loop RNA reporter;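 note: bound reporter read as fluorescence of individual clusters on recovered sequencing chips by microscopy, with normalized cluster intensities fitted with a binding model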
- ASSAY TEXT: apparent KD of K4 kissing-loop reporter; higher = weaker reporter binding
- STATED CONDITIONS: Eterna round: R107; input ligand: theophylline 20 uM
RECORDED METRIC: apparent KD of K4 kissing-loop reporter
Write the numeric value and append its unit.

Before answering, review these 2 worked examples.
{"columns": ["SEQUENCE DATA", "TEST VALUE"],
 "data": [
  ["GGUAGCAUGGCGGCCGCCACUAAAACUGGAUCGGAAACGAUCCAGUAAUUUCGAGUGAUGUUCGUUAGGACCGGGCCAUGCUACC", "257 nM"],
  ["CGGAUGUAGUGAUGUUAUAUUAGAUGUAGACGAGGACCGGUACGGCCGCCACUCGUGACGGCUGCUAGCGCGUUGCGAGGUGUGC [ExTryptoA.Cm]", "690 nM"]
]}

apparent KD of K4 kissing-loop reporter in this record for UGAACCGCCCAGUGAUGUUGGGCCAUAGAUACCAGCCUCUCCGACGGCCCUUGGCAGCUAGGGCCCGGCAGGUAGGAGACUCUGC [Orarzasove] : 239 nM

apparent KD of K4 kissing-loop reporter in this record for UGAUAGGACAGAAGGAGCGGAAUCCUGUCAAAGACAGGAAAAUAAAUAAAAGGAGUGAUGUUCCAGGUAGGUCGCUGUCCUAUCU [ArgBX 19 #SwitchBubble #StaticStem] : 243 nM

apparent KD of K4 kissing-loop reporter in this record for UUUCCAGUGAUGUUGGAGAAAACCGAGGAAGGAGCGGACUCUUGUCCAGGUAGGUCGCCUCGUCUCCCAUUGGCAGAGCGGACCC [Enlaonbian] : 574 nM

apparent KD of K4 kissing-loop reporter in this record for CGCUGGAGUGAUGUUCCAGCUUCUACGGAUACCAGCCACGCCAGCGGCCCUUGGCAGCCGCAAAUUGCAGUGAUGUUGUGAUGCC [Same State Theophylline A GF 4] : 312 nM
